experiment: Phase I open-label single-dose crossover oral bioavailability / PK test of bedoradrine sulfate in healthy volunteers; assay type: in vivo, human; conditions: both sexes, human, in vivo, po, 600 ug, Tmax, median
Counter-ions that a name gives are not always drawn.
recorded metric: Tmax
Show the value, then the unit it is measured in.

Query :: Query (molecule): CN(C)C(=O)COc1ccc2c(c1)C[C@@H](NC[C@H](O)c1ccc(O)c(CCO)c1)CC2 [MN-221, bedoradrine sulfate] ; field requested: Tmax
Result :: 1.5 h

----------
experiment: Phase I open-label single-dose crossover oral bioavailability / PK test of bedoradrine sulfate in healthy volunteers; format: in vivo, human; settings: both sexes, human, in vivo, iv, 300 ug, Tmax, median
Counter-ions that a name gives are not always drawn.
recorded metric: Tmax (min)
Hi! Could you send only the number? It should be in min, unit omitted.

Query :: Query (compound): CN(C)C(=O)COc1ccc2c(c1)C[C@@H](NC[C@H](O)c1ccc(O)c(CCO)c1)CC2 [MN-221, bedoradrine sulfate] ; field requested: Tmax
Result :: 15
